Target: GST-talin head (mouse, UniProt P26039 1-433)
Sequence (P26039 1-433): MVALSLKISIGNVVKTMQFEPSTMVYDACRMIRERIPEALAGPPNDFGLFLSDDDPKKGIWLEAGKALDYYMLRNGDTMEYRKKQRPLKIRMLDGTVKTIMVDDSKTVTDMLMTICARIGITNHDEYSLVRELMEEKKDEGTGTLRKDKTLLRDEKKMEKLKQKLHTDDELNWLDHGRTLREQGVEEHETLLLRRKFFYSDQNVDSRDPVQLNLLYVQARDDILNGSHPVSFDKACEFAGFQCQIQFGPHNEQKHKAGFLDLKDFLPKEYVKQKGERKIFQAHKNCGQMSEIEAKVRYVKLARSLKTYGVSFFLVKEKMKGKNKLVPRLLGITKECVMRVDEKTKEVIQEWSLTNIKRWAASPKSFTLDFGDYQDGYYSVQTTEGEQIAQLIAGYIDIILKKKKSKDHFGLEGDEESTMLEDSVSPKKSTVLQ
Assay: pull-down
REPORTED_PROPERTY: Kd (nM)
Report the figure in nM without appending any unit label.

Ask | Indicate its recorded Kd; the binder in question is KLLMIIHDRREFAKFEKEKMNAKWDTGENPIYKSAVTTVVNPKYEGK (domain or fragment, UniProt P05556-1 752-798, looked up) [β1A-integrin cytoplasmic tail (recombinant model protein)]
Reply | 124
